# targetEntity: T1, human PVRIG expressed on cells (human, UniProt Q6DKI7 41-326)
# T1 sequence (looked up): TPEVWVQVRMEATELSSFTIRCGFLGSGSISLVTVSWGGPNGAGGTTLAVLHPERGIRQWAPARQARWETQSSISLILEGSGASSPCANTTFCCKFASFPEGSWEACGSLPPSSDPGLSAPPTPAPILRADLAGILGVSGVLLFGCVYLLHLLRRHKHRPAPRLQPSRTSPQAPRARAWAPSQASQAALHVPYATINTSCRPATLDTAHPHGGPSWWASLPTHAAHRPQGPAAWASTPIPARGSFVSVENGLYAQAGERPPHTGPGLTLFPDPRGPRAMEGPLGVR
# experimentDescription: cell-based or functional assay
valueType: PVRIG reporter gene cell activity EC50 (nM)
Report as a plain number; the unit nM is understood.

Below, 2 binders whose answers are already recorded.
binder	PVRIG reporter gene cell activity EC50, nM
humanized anti-PVRIG antibody 151H7 (antibody, human IgG4 S228P, F234A L235A, V domains shown) VH: HVQLVESGGGLVQPGGSLRLSCVASASGFTYRPYCMAWFRQAPGKEREAVAGIDIFGGTTYADSVKGRFTASRDNAGFSLYLQMNSLRAEDTAVYYCAAGDSPDGRCPPLGQGLNYWGQGTMVTVSS	0.038
humanized anti-PVRIG antibody 39H4 (antibody, human IgG4 S228P, F234A L235A, V domains shown) VH: EVQLVESGGGLVQPGGSLRLSCAASGYTSRTDCMGWFRQAPGKGLEGVAHIDSDGIPRYVESVKGRFTISQDHAKNSLYLQMNSLRAEDTAVYYCVVGFKFGDYCAPNDWGQGTMVTVSS	0.094

Qu. Answer with reported PVRIG reporter gene cell activity EC50 of positive antibody Tab5 (antibody, human IgG4 S228P, kappa, F234A L235A, V domains shown, Variable regions of CPA.7.021 (WO2016134333A1) on human IgG4 (S228P/F234A/L235A/K447A) and human kappa constant regions) VH: EVQLVESGGGVVKPGGSLRLSCAASGFTFGTSSMNWVRQAPGKGLEWVAVISFDGTEIHYADSVKGRFTISRDNSKSTVFLQMNSLRPDDTALYYCAKGSGNIYFYSGMDVWGQGTTVTVSS VL: DIQMTQSPSTLSASVGDRVTITCRAGQSISGWLAWFQQKPGKAPNLLIYETSTLESGVPSRFSGSGSGTEYTLTISSLQPDDFATYYCQQYYSYPLTFGQGTKVEIKR
Ans. 1.38
